Target: D(1A) dopamine receptor (Homo sapiens)
Assay: HTS Assay for Allosteric Agonists of the Human D1 Dopamine Receptor: Primary Screen for Antagonists (AID 488983);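 further: calcium flux response to an EC80 dopamine challenge measured with no-wash dye; nearly all actives have a fitted effect of over 65% in size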
Settings: D1 receptor cell assay, antagonist mode, qHTS titration; series mostly up to 41.8 µM
Records with an inconclusive call do not appear. Active and inactive are the calls of the source. The call rests on the fitted dose curve; in most records, active means well fitted inhibition curve with a large enough effect; inconclusive means small, poorly fitted or top-dose-only effect, or effect the other way; inactive means flat fitted curve, though single readings scatter.
The categories you may choose from are active, inactive

q: Any idea what this test logged for NC1(C(=O)O)CCc2cc(C(=O)O)ccc21 (stereo not given) ?
a: inactive

q: # outcome recorded in this test, key = CCCCCCCC/C=C\CCCCCCCC(=O)NCCc1ccc(O)c(O)c1
a: inactive

q: What call does the record list for CC(C)C[C@H](NC(=O)C1OC1C(=O)O)C(=O)NCCCCN=C(N)N (stereo not given in full) ?
a: inactive

q: What call does the record list for CC(=O)NNC(=O)N1Cc2ccccc2Oc2ccc(Cl)cc21 ?
a: inactive

q: Please indicate how the test categorized CCCC(=O)NCCc1c2n(c3ccc(OC)cc13)CCCc1ccccc1-2 .
a: inactive

q: // return assay outcome for NC(=Nc1ccccc1)NC(=O)c1nc(Cl)c(N)nc1N
a: active

q: What outcome does the record of this test show for N[C@@H](Cc1ccc(F)cc1)C(=O)O ?
a: inactive

q: What did the test return for C[C@H](O)C(=O)C1=Nc2c(nc(N)[nH]c2=O)NC1 ?
a: inactive

q: Recorded test outcome, item COCc1nc2c([nH]1)c(=O)n(C)c(=O)n2CC(C)C
a: inactive

q: Recorded call for CNCCc1cnc(CCC(c2ccccc2)c2ccccc2)[nH]1 ?
a: inactive

q: Recorded test call requested for N=S(=O)(O)Cc1noc2ccccc12
a: inactive
